Values compiled from ChEMBL document CHEMBL5291721.

The reader will find AC50 measurements below, all made with Gamma-aminobutyric acid receptor subunit alpha-1 (Rattus norvegicus).
Sequence (P62813 whole entry): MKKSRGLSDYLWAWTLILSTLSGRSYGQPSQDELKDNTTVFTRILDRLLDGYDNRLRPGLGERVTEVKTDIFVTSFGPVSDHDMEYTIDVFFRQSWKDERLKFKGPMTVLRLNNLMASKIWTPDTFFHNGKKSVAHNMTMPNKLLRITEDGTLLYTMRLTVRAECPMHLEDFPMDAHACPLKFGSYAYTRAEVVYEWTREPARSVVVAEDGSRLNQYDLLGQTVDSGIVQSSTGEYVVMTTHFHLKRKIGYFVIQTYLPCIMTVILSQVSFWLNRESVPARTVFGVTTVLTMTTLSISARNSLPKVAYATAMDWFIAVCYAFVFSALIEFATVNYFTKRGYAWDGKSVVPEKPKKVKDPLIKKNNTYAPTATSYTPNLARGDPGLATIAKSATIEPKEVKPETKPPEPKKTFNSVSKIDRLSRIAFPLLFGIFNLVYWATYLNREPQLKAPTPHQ

Some compounds with recorded AC50:
Nc1nc(N)c2nc(-c3ccccc3)c(N)nc2n1 ... > 30 µM
COc1ccc2c(c1)c(CC(=O)OCC(=O)O)c(C)n2C(=O)c1ccc(Cl)cc1 [ACEMETACIN] ... > 30 µM
CCCCCCCCCCCC[N+](C)(C)CCOc1ccccc1 [DOMIPHEN] ... > 30 µM
O=C(O)CCn1c2c(c3ccccc31)C[C@H](NS(=O)(=O)c1ccc(F)cc1)CC2 [RAMATROBAN] ... > 10 µM

Note: attention shifts to another entry.
Entry COc1c(C)c2c(c(O)c1C/C=C(\C)CCC(=O)OCCN1CCOCC1)C(=O)OC2 [MYCOPHENOLATE MOFETIL] under Gamma-aminobutyric acid receptor subunit alpha-1 (Rattus norvegicus) had AC50 of > 30 µM

###

The reader will find AC50 measurements below, all made with Gastrin/cholecystokinin type B receptor (Homo sapiens, UniProt P32239).
Sequence (P32239 whole entry): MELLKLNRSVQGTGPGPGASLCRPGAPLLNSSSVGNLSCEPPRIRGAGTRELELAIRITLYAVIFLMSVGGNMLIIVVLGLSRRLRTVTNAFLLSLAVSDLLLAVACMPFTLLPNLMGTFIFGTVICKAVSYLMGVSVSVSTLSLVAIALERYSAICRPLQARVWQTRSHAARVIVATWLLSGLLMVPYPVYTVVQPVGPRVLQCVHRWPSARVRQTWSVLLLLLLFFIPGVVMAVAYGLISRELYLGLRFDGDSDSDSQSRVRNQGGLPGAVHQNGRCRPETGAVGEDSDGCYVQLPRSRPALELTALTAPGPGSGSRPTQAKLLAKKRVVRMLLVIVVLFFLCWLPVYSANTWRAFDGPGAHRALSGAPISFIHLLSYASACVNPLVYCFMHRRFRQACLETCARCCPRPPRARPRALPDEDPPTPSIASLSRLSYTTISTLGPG

Some compounds with recorded AC50:
NC(=O)c1cnccn1 [PYRAZINAMIDE] ... > 30 µM
O=C(OCCN1CCOCC1)c1cccnc1Nc1cccc(C(F)(F)F)c1 [MORNIFLUMATE] ... > 30 µM
CN(C/C=C/c1ccccc1)Cc1cccc2ccccc12 [NAFTIFINE] ... > 30 µM
Nc1nc(N)c2nc(-c3ccccc3)c(N)nc2n1 ... > 30 µM
O=C(O)CCCc1ccccc1 [PHENYLBUTANOIC ACID] ... > 10 µM
COC(=O)[C@H]1[C@@H](OC(=O)c2ccccc2)C[C@@H]2CC[C@H]1N2C [COCAINE] ... > 30 µM

Memo: CCC[C@@H]1C[C@@H](C(=O)N[C@@H]([C@H]2O[C@H](SC)[C@H](O)[C@@H](O)[C@H]2O)[C@H](C)Cl)N(C)C1 [CLINDAMYCIN] , reported AC50: > 30 µM

Memo: `CCOC(=O)[C@H](CCc1ccccc1)N[C@@H](C)C(=O)N1CCC[C@H]1C(=O)O` , reported AC50: > 30 µM

Memo: C1=Cc2cccc(OCC3CNCCO3)c2C1 (stereo unspecified) [INDELOXAZINE] , reported AC50: > 30 µM

Memo: CN(CCOc1ccc(NS(C)(=O)=O)cc1)CCc1ccc(NS(C)(=O)=O)cc1 [DOFETILIDE] , reported AC50: > 30 µM

Memo: CCN(CC)CCNC(=O)c1cc(Cl)c(N)cc1OC [METOCLOPRAMIDE] , reported AC50: > 30 µM

Memo: CCc1ccc(CCOc2ccc(CC3SC(=O)NC3=O)cc2)nc1 (stereo unspecified) [PIOGLITAZONE] , reported AC50: > 30 µM

Memo: Oc1ncnc2[nH]ncc12 [ALLOPURINOL] , reported AC50: > 30 µM

Memo: CCCCOc1cc(C(=O)NCCN(CC)CC)c2ccccc2n1 [DIBUCAINE] , reported AC50: > 30 µM

Memo: N[C@@H](CSCC(=O)O)C(=O)O [CARBOCYSTEINE] , reported AC50: > 30 µM

Memo: CC/C=C\C/C=C\C/C=C\CCCCCCCC(=O)O [LINOLENIC ACID] , reported AC50: > 30 µM

Memo: COc1ccc(C(=O)NCc2ccc(OCCN(C)C)cc2)cc1OC [ITOPRIDE] , reported AC50: > 30 µM

Memo: O=C(O)Cc1cn(-c2ccccc2)nc1-c1ccc(Cl)cc1 [LONAZOLAC] , reported AC50: > 10 µM

Memo: NC(N)=Nc1nc(CSCCC(N)=NS(N)(=O)=O)cs1 [FAMOTIDINE] , reported AC50: > 30 µM

Memo: CC(C)(Oc1ccc(C2CC2(Cl)Cl)cc1)C(=O)O (stereo unspecified) [CIPROFIBRATE] , reported AC50: > 30 µM

Memo: CN[C@@H](C)[C@H](O)c1ccccc1 [EPHEDRINE] , reported AC50: > 30 µM
